Values were extracted from patent US20100137397A1.

Measurement Target: Human recombinant liver glycogen phosphorylase a (hrl GPa) (Homo sapiens, UniProt P06737)
Sequence (P06737 whole entry): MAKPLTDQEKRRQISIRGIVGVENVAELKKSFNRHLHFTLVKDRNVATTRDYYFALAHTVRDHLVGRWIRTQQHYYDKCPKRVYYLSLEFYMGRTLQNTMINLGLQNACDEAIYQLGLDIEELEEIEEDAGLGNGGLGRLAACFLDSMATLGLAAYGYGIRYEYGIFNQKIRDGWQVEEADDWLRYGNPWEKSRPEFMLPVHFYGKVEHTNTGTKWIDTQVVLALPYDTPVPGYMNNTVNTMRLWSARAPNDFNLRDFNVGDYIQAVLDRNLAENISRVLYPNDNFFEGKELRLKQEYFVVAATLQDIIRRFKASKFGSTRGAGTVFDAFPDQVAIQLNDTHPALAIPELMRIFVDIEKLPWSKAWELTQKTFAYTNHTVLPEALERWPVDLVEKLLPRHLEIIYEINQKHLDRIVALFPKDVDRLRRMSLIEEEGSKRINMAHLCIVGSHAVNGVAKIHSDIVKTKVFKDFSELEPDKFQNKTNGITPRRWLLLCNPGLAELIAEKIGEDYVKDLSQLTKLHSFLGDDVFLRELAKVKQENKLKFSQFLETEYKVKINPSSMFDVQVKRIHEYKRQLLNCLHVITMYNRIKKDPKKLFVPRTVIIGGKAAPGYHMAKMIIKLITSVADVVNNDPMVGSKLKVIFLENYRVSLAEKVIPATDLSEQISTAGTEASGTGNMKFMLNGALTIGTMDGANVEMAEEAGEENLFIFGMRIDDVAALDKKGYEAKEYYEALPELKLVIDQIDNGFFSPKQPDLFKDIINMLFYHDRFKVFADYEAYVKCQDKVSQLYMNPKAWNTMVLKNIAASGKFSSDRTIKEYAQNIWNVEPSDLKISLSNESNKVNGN
Experiment Notes: glycogen phosphorylase a multienzyme coupled assay
Format: biochemical
Applied Conditions: hrl GPa 20 nM, 8 mM glucose, pH7.2, 6 hours at 30° C.
Measured IC50 by item
The reply should contain only the number, in nM.

Task: // IC50 lookup, key: "O=C(O)COC[C@@H]1c2ccccc2C[C@H]1NC(=O)c1cc2cc(Cl)sc2[nH]1"
Output: 191

Task: // IC50 lookup, key: "O=C(O)C[C@@H]1c2ccccc2C[C@H]1NC(=O)c1cc2sc(Cl)c(Cl)c2[nH]1"
Output: 14
